Where do the numbers come from? From paper PMC10663500.

target: T1, human programmed cell death protein 1 (hPD-1) C93S (aa 24-167) (Homo sapiens, UniProt Q15116, C93S); assay: SPR; Carterra LSA; Fab from the ammonium sulfate precipitate of the culture supernatant immobilised on a NiHC200M chip; hPD-1 (1-1024 nM) or mPD-1-Fc (4-1024 nM) as analyte, fourfold dilution series, no regeneration; HBS-EP pH 7.4, 25 °C; medians over the spots of a construct, KD = koff/kon; details: one partner purified
T1 construct: made as a fusion with a TEV site and human Fc; the Fc was cut off with TEV protease; source: Expi293F, purified (Protein A, TEV cleavage of Fc, SEC; monomer fractions); not shown: Fc (human), C-terminal, cleaved
T1 sequence (Q15116 24-167 C93S): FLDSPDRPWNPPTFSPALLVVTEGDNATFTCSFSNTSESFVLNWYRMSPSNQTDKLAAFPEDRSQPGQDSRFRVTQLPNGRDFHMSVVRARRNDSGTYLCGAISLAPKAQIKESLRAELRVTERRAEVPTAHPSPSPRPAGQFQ
READOUT_NAME: kon (M⁻¹ s⁻¹)
Write the value in M⁻¹ s⁻¹ as a bare number.

Record excerpt, results attached:
Exercise: Please look up its kon: toripalimab Fab L.R59Y (Fab, V domains shown, as the heavy chain of Sm3; light chain of Sm3 with this change; numbers count from the chain's first residue; source: Brevibacillus, culture supernatant (ammonium sulfate precipitate); not shown: 6xHis, C-terminal, kept; 6xHN, C-terminal, kept) VH: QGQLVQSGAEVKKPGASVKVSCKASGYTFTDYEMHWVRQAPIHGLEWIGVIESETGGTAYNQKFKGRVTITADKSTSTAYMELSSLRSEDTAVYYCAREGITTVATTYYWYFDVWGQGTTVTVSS VL: DVVMTQSPLSLPVTLGQPASISCRSSQSIVHSNGNTYLEWYLQKPGQSPQLLIYKVSNYFSGVPDRFSGSGSGTDFTLKISRVEAEDVGVYYCFQGSHVPLTFGQGTKLEIK
Key: 28100

Exercise: What measured kon goes with toripalimab Fab L.V99F (Fab, V domains shown, as the heavy chain of Sm3; light chain of Sm3 with this change; numbers count from the chain's first residue; source: Brevibacillus, culture supernatant (ammonium sulfate precipitate); not shown: 6xHis, C-terminal, kept; 6xHN, C-terminal, kept) VH: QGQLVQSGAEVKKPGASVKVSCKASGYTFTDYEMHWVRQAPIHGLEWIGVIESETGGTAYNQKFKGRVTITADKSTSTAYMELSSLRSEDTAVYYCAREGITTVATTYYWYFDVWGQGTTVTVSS VL: DVVMTQSPLSLPVTLGQPASISCRSSQSIVHSNGNTYLEWYLQKPGQSPQLLIYKVSNRFSGVPDRFSGSGSGTDFTLKISRVEAEDVGVYYCFQGSHFPLTFGQGTKLEIK ?
Key: 16900

Further cases:
Exercise: Consider the binder toripalimab Fab L.L101I (Fab, V domains shown, as the heavy chain of Sm3; light chain of Sm3 with this change; numbers count from the chain's first residue; source: Brevibacillus, culture supernatant (ammonium sulfate precipitate); not shown: 6xHis, C-terminal, kept; 6xHN, C-terminal, kept) VH: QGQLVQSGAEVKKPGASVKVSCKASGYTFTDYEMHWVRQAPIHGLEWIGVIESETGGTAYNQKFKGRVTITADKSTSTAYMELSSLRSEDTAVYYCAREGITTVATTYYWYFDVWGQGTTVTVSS VL: DVVMTQSPLSLPVTLGQPASISCRSSQSIVHSNGNTYLEWYLQKPGQSPQLLIYKVSNRFSGVPDRFSGSGSGTDFTLKISRVEAEDVGVYYCFQGSHVPITFGQGTKLEIK and give its measured kon.
Key: 6430

Exercise: Suppose we examine the binder toripalimab Fab H.G100A (Fab, V domains shown, heavy chain of Sm3 with this change; numbers count from the chain's first residue; as the light chain of Sm3; source: Brevibacillus, culture supernatant (ammonium sulfate precipitate); not shown: 6xHis, C-terminal, kept; 6xHN, C-terminal, kept) VH: QGQLVQSGAEVKKPGASVKVSCKASGYTFTDYEMHWVRQAPIHGLEWIGVIESETGGTAYNQKFKGRVTITADKSTSTAYMELSSLRSEDTAVYYCAREAITTVATTYYWYFDVWGQGTTVTVSS VL: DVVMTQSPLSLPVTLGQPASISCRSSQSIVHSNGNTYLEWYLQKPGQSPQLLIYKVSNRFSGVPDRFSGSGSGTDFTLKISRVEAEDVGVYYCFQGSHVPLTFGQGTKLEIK ; what kon value has been reported?
Key: 23900

Exercise: May I ask what kon has been recorded for toripalimab Fab L.N58Y (Fab, V domains shown, as the heavy chain of Sm3; light chain of Sm3 with this change; numbers count from the chain's first residue; source: Brevibacillus, culture supernatant (ammonium sulfate precipitate); not shown: 6xHis, C-terminal, kept; 6xHN, C-terminal, kept) VH: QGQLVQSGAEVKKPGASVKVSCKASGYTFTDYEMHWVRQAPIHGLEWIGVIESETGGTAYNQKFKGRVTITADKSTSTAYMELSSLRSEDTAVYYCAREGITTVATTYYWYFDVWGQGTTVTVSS VL: DVVMTQSPLSLPVTLGQPASISCRSSQSIVHSNGNTYLEWYLQKPGQSPQLLIYKVSYRFSGVPDRFSGSGSGTDFTLKISRVEAEDVGVYYCFQGSHVPLTFGQGTKLEIK ?
Key: 6150
